Molecular target: human CB1 receptor (Homo sapiens)
Sequence (P21554 whole entry): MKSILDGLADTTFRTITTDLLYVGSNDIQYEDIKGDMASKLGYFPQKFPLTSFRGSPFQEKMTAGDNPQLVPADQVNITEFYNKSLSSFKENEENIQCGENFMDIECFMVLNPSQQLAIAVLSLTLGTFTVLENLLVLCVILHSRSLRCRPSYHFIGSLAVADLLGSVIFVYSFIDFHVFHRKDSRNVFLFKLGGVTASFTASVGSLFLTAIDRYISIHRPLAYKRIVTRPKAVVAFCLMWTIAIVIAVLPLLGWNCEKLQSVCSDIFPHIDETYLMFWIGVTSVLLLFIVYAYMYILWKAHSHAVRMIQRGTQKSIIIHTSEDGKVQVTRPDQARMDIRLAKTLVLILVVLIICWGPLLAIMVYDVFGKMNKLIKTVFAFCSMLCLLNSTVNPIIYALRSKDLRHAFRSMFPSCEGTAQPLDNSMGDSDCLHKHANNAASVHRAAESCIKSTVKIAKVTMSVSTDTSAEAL
Test: biochemical
Assay type: binding
Set-up: membranes prepared in house
Conditions: fold difference in binding between CB1 and CB2, shown in the column of the receptor with higher affinity; 1.00 in both = about same affinity
# Selectivity CB1 annotations

CCCCCc1cc(O)c(C2C=C(C)CCC2)c(O)c1C(=O)NS(=O)(=O)c1cccnc1 (stereo not shown) [Compound 71c]; 1.14 fold
C=C(C)[C@@H]1CCC(C)=C[C@H]1c1c(O)cc(CCCCC)c(S(=O)(=O)OCC(F)(F)F)c1O [Compound 64d]; 2.00 fold
CCCCCc1cc(O)c(C2C=C(C)CCC2)c(O)c1S(N)(=O)=O (stereo not shown) [Compound 19c]; 1.00 fold

IN: I have this molecule here, C=C(C)[C@@H]1CCC(C)=C[C@H]1c1c(O)cc(CCCCC)c(S(=O)(=O)N(CCO)CCBr)c1O [Compound 63d] , and I need its recorded Selectivity CB1.
OUT: 1.00 fold
